biological target: PAI-1 (Homo sapiens, UniProt P05121); assay: PAI chromogenic substrate assay (first S2251 assay, tPA/plasminogen system); type: biochemical; details: Concentration 100 μm
Sequence (P05121 24-402): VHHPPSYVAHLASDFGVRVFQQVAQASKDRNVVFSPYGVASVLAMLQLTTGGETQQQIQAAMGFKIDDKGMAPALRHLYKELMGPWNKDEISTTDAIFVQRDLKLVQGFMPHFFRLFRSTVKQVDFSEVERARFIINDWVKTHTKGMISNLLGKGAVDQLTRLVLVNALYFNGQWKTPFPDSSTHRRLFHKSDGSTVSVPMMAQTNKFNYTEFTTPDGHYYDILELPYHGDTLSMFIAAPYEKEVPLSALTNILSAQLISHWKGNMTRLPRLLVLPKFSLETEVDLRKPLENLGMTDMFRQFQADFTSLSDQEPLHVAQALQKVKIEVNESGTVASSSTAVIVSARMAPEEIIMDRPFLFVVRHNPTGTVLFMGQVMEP
Would you kindly list Inhibition of PAI-1 in the first S2251 chromogenic substrate assay for each of these molecules?
Report only the number, with the unit % understood.

Q: // Input: COc1ccc(/C=c2\[nH]c(=O)/c(=C/c3ccc(F)cc3F)[nH]c2=O)cc1 [Compound 69] . Output its Inhibition of PAI-1 in the first S2251 chromogenic substrate assay only.
Ans: 68

Q: Give the reported value of Inhibition of PAI-1 in the first S2251 chromogenic substrate assay for this record: CC(=O)Nc1ccc(/C=c2\[nH]c(=O)/c(=C/c3ccc(F)cc3F)[nH]c2=O)cc1 [Compound 77]
Ans: 33

Q: Identify Inhibition of PAI-1 in the first S2251 chromogenic substrate assay associated with the molecule COc1ccc(/C=c2\[nH]c(=O)/c(=C/c3ccc(C(C)(C)C)cc3)[nH]c2=O)cc1 [Compound 50]
Ans: 62

Q: Given COc1ccc(/C=c2\[nH]c(=O)/c(=C/c3ccc(OC)c(OC)c3)[nH]c2=O)cc1 [Compound 91] , respond with its Inhibition of PAI-1 in the first S2251 chromogenic substrate assay.
Ans: 50

Q: Give the measured Inhibition of PAI-1 in the first S2251 chromogenic substrate assay for COC(=O)c1cccc(/C=c2\[nH]c(=O)/c(=C/c3ccccc3)[nH]c2=O)c1 [Compound 62]
Ans: 83

Q: Give the value of Inhibition of PAI-1 in the first S2251 chromogenic substrate assay reported for the following: COc1ccc(/C=c2\[nH]c(=O)/c(=C/c3ccc(CSC)cc3)[nH]c2=O)cc1 [Compound 57]
Ans: 82

Q: Identify measured Inhibition of PAI-1 in the first S2251 chromogenic substrate assay associated with COc1ccc(/C=c2\[nH]c(=O)/c(=C/c3ccc(OC)cc3OC)[nH]c2=O)cc1 [Compound 73]
Ans: 50

Q: For the molecule COc1ccc(/C=c2\[nH]c(=O)/c(=C/c3ccc(S(C)(=O)=O)cc3)[nH]c2=O)cc1 [Compound 46] , give its reported Inhibition of PAI-1 in the first S2251 chromogenic substrate assay.
Ans: 39
